Molecular target: human PTH1 receptor (Homo sapiens)
Sequence (Q03431 27-593): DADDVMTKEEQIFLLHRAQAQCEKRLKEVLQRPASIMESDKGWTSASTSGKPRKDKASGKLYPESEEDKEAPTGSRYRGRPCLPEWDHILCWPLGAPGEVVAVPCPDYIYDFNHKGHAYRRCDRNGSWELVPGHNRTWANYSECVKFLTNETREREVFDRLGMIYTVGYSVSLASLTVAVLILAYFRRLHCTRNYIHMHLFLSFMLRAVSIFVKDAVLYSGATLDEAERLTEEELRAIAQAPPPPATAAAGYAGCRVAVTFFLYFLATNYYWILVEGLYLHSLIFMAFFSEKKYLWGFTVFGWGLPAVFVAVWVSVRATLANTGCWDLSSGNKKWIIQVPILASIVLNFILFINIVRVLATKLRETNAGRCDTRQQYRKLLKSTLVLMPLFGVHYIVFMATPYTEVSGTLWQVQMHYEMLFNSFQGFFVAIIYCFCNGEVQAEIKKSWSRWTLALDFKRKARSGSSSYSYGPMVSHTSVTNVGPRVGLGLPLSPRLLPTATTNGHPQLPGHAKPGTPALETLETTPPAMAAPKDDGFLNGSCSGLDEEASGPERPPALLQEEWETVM
Experiment: In vitro cAMP signal activity in HKRK-B7 cells (LLC-PK1 cells overexpressing the human PTH1 receptor)
Type: cell-based
Details: HKRK-B7 cells; compound at 1×10^−3 M; cAMP produced as percentage of that produced by hPTH(1-34) at 100 nM
OBSERVABLE: cAMP production activity (%)

Below, 2 molecules whose answers are already recorded.
{"MOLECULE": "Cc1cc2c(ccn2C[C@@H](O)CO)c(C)c1/C=C/S(=O)(=O)N1CCC2(CC1)N=C(C1CCC(CCC(F)(F)F)CC1)NC2=O (some centres unmarked)", "REPORTED_RESULT": "4.1%"}
{"MOLECULE": "Cc1ccc(OCCC(O)CO)cc1CCS(=O)(=O)N1CCC2(CC1)N=C(c1cccc(OC(F)(F)F)c1)NC2=O (centres unmarked)", "REPORTED_RESULT": "42%"}

Asked: // cAMP production activity (%) lookup, key: CC(=O)N(C)c1ccc(C)c(CCS(=O)(=O)N2CCC3(CC2)N=C(c2cccc(OC(F)(F)F)c2)NC3=O)c1
Given back: 55%

Asked: // cAMP production activity (%) lookup, key: Cn1cc(-c2ccccc2CCS(=O)(=O)N2CCC3(CC2)N=C(C2CCCCC2)NC3=O)cn1
Given back: 67%

Asked: // cAMP production activity (%) lookup, key: Cc1cc(NCC(N)=O)ccc1/C=C/S(=O)(=O)N1CCC2(CC1)N=C(c1cccc(OC(F)(F)F)c1)NC2=O
Given back: 68%

Asked: // cAMP production activity (%) lookup, key: Cc1cc(C(=O)N2CC(O)C2)cc(C)c1/C=C/S(=O)(=O)N1CCC2(CC1)N=C(c1cccc(C(F)(F)F)c1)NC2=O
Given back: 94%

Asked: // cAMP production activity (%) lookup, key: O=C1NC([C@H]2C[C@H]3CC[C@@H]2C3)=NC12CCN(S(=O)(=O)c1cccc(Cl)c1)CC2
Given back: 43%

Asked: // cAMP production activity (%) lookup, key: Cc1cc2cc(C)c1CCS(=O)(=O)N1CCC3(CC1)N=C(CCCCCCCCCCCCCC(=O)N2C)NC3=O
Given back: 62%
